Kindly state Heart % dose/g for each of the entries shown.
- Protocol Description: Biodistribution of 99mTc(N)(X)(DTC)+ heterocomplexes in rats
- Assay type: in vivo, male Spraque-Dawley rats (SD rats)
- Measurement Context: 10 min after injection
- Description: The biodistribution of a ^99mTc nitride heterocomplex represented by the general formula ^99mTc(N)(X)(Y) was investigated as follows: ^99mTc nitride heterocomplexes were synthesized using DTC as a bidentate ligand Y and each of the diphosphine compounds X described below, and the biodistribution in rats of each heterocomplex was investigated. […] The biodistribution was measured using male Spraque-Dawley rats (SD rats) weighing 200 to 250 g. […]
Please report the result as a number followed by the unit.

Query block: Quick check: Heart % dose/g of COCCN1CC[P+](c2ccccc2)(c2ccccc2)[99Tc-2]2(#[N])([NH]N(C)C(SC)=[S+]2)[P+](c2ccccc2)(c2ccccc2)CC1 [^99mTc(N)(PNP2)(DTC)^+] ?
Result block: 0.736 ± 0.12 % dose/g

Query block: Moving on to CCCN1CC[P+](c2ccccc2)(c2ccccc2)[99Tc-2]2(#[N])([NH]N(C)C(SC)=[S+]2)[P+](c2ccccc2)(c2ccccc2)CC1 [^99mTc(N)(PNP1)(DTC)^+]
Result block: 0.795 ± 0.06 % dose/g

Query block: Moving on to COCCC[P]1(CCCOC)CCN(CCOC)CC[P](CCCOC)(CCCOC)[99Tc+]12(#[N])[NH]N(C)C(SC)=[S]2 [^99mTc(N)(PNP3)(DTC)^+]
Result block: 2.506 ± 0.10 % dose/g

Query block: Moving on to CSC1=[S+][99Tc-2]2(#[N])([NH]N1C)[P+](c1ccccc1)(c1ccccc1)CCOCC[P+]2(c1ccccc1)c1ccccc1 [^99mTc(N)(POP)(DTC)^+]
Result block: 0.434 ± 0.05 % dose/g

====

Kindly state Muscle % dose/g for each of the entries shown.
- Protocol Description: Biodistribution of 99mTc(N)(X)(DTC)+ heterocomplexes in rats
- Assay type: in vivo, male Spraque-Dawley rats (SD rats)
- Measurement Context: 1 hr after injection
Answer in % dose/g, number only, no unit symbol.

Query block: Quick check: Muscle % dose/g of CSC1=[S+][99Tc-2]2(#[N])([NH]N1C)[P+](c1ccccc1)(c1ccccc1)CCOCC[P+]2(c1ccccc1)c1ccccc1 [^99mTc(N)(POP)(DTC)^+] ?
Result block: 0.068

Query block: Moving on to COCCC[P]1(CCCOC)CCN(CCOC)CC[P](CCCOC)(CCCOC)[99Tc+]12(#[N])[NH]N(C)C(SC)=[S]2 [^99mTc(N)(PNP3)(DTC)^+]
Result block: 0.236

Query block: Moving on to CCCN1CC[P+](c2ccccc2)(c2ccccc2)[99Tc-2]2(#[N])([NH]N(C)C(SC)=[S+]2)[P+](c2ccccc2)(c2ccccc2)CC1 [^99mTc(N)(PNP1)(DTC)^+]
Result block: 0.302

Query block: Moving on to COCCN1CC[P+](c2ccccc2)(c2ccccc2)[99Tc-2]2(#[N])([NH]N(C)C(SC)=[S+]2)[P+](c2ccccc2)(c2ccccc2)CC1 [^99mTc(N)(PNP2)(DTC)^+]
Result block: 0.075

====

Kindly state Muscle % dose/g for each of the entries shown.
- Protocol Description: Biodistribution of 99mTc(N)(X)(DTC)+ heterocomplexes in rats
- Type: in vivo, male Spraque-Dawley rats (SD rats)
- Measurement Context: 0 min after injection
- Method: The biodistribution of a ^99mTc nitride heterocomplex represented by the general formula ^99mTc(N)(X)(Y) was investigated as follows: ^99mTc nitride heterocomplexes were synthesized using DTC as a bidentate ligand Y and each of the diphosphine compounds X described below, and the biodistribution in rats of each heterocomplex was investigated. […] The biodistribution was measured using male Spraque-Dawley rats (SD rats) weighing 200 to 250 g. […]
Answer in % dose/g, number only, no unit symbol.

Query block: Quick check: Muscle % dose/g of COCCN1CC[P+](c2ccccc2)(c2ccccc2)[99Tc-2]2(#[N])([NH]N(C)C(SC)=[S+]2)[P+](c2ccccc2)(c2ccccc2)CC1 [^99mTc(N)(PNP2)(DTC)^+] ?
Result block: 0.134

Query block: Moving on to CCCN1CC[P+](c2ccccc2)(c2ccccc2)[99Tc-2]2(#[N])([NH]N(C)C(SC)=[S+]2)[P+](c2ccccc2)(c2ccccc2)CC1 [^99mTc(N)(PNP1)(DTC)^+]
Result block: 0.098

Query block: Moving on to COCCC[P]1(CCCOC)CCN(CCOC)CC[P](CCCOC)(CCCOC)[99Tc+]12(#[N])[NH]N(C)C(SC)=[S]2 [^99mTc(N)(PNP3)(DTC)^+]
Result block: 0.232

Query block: Moving on to CSC1=[S+][99Tc-2]2(#[N])([NH]N1C)[P+](c1ccccc1)(c1ccccc1)CCOCC[P+]2(c1ccccc1)c1ccccc1 [^99mTc(N)(POP)(DTC)^+]
Result block: 0.087

====

- Protocol Description: Biodistribution of 99mTc(N)(X)(DTC)+ heterocomplexes in rats
- Assay type: in vivo, male Spraque-Dawley rats (SD rats)
- Measurement Context: 0 min after injection
Measured Parameter: Lung % dose/g (% dose/g)
Answer in % dose/g, number only, no unit symbol.

Query block: Quick check: Lung % dose/g of COCCC[P]1(CCCOC)CCN(CCOC)CC[P](CCCOC)(CCCOC)[99Tc+]12(#[N])[NH]N(C)C(SC)=[S]2 [^99mTc(N)(PNP3)(DTC)^+] ?
Result block: 2.133

Query block: Moving on to COCCN1CC[P+](c2ccccc2)(c2ccccc2)[99Tc-2]2(#[N])([NH]N(C)C(SC)=[S+]2)[P+](c2ccccc2)(c2ccccc2)CC1 [^99mTc(N)(PNP2)(DTC)^+]
Result block: 3.568

Query block: Moving on to CSC1=[S+][99Tc-2]2(#[N])([NH]N1C)[P+](c1ccccc1)(c1ccccc1)CCOCC[P+]2(c1ccccc1)c1ccccc1 [^99mTc(N)(POP)(DTC)^+]
Result block: 2.792

Query block: Moving on to CCCN1CC[P+](c2ccccc2)(c2ccccc2)[99Tc-2]2(#[N])([NH]N(C)C(SC)=[S+]2)[P+](c2ccccc2)(c2ccccc2)CC1 [^99mTc(N)(PNP1)(DTC)^+]
Result block: 5.815

====

Kindly state Bone % dose/g for each of the entries shown.
- Protocol Description: Biodistribution of 99mTc(N)(X)(DTC)+ heterocomplexes in rats
- Type: in vivo, male Spraque-Dawley rats (SD rats)
- Measurement Context: 2 min after injection
Answer in % dose/g, number only, no unit symbol.

Query block: Quick check: Bone % dose/g of COCCC[P]1(CCCOC)CCN(CCOC)CC[P](CCCOC)(CCCOC)[99Tc+]12(#[N])[NH]N(C)C(SC)=[S]2 [^99mTc(N)(PNP3)(DTC)^+] ?
Result block: 2.242

Query block: Moving on to COCCN1CC[P+](c2ccccc2)(c2ccccc2)[99Tc-2]2(#[N])([NH]N(C)C(SC)=[S+]2)[P+](c2ccccc2)(c2ccccc2)CC1 [^99mTc(N)(PNP2)(DTC)^+]
Result block: 0.265

Query block: Moving on to CSC1=[S+][99Tc-2]2(#[N])([NH]N1C)[P+](c1ccccc1)(c1ccccc1)CCOCC[P+]2(c1ccccc1)c1ccccc1 [^99mTc(N)(POP)(DTC)^+]
Result block: 0.214

Query block: Moving on to CCCN1CC[P+](c2ccccc2)(c2ccccc2)[99Tc-2]2(#[N])([NH]N(C)C(SC)=[S+]2)[P+](c2ccccc2)(c2ccccc2)CC1 [^99mTc(N)(PNP1)(DTC)^+]
Result block: 0.234

====

- Protocol Description: Biodistribution of 99mTc(N)(X)(DTC)+ heterocomplexes in rats
- Assay type: in vivo, male Spraque-Dawley rats (SD rats)
- Measurement Context: 2 hr after injection
Kindly state Blood % dose/g for each of the entries shown.
Please report the result as a number followed by the unit.

Query block: Quick check: Blood % dose/g of CCCN1CC[P+](c2ccccc2)(c2ccccc2)[99Tc-2]2(#[N])([NH]N(C)C(SC)=[S+]2)[P+](c2ccccc2)(c2ccccc2)CC1 [^99mTc(N)(PNP1)(DTC)^+] ?
Result block: 0.22 ± 0.05 % dose/g

Query block: Moving on to COCCC[P]1(CCCOC)CCN(CCOC)CC[P](CCCOC)(CCCOC)[99Tc+]12(#[N])[NH]N(C)C(SC)=[S]2 [^99mTc(N)(PNP3)(DTC)^+]
Result block: 0.049 ± 0.00 % dose/g

Query block: Moving on to COCCN1CC[P+](c2ccccc2)(c2ccccc2)[99Tc-2]2(#[N])([NH]N(C)C(SC)=[S+]2)[P+](c2ccccc2)(c2ccccc2)CC1 [^99mTc(N)(PNP2)(DTC)^+]
Result block: 0.129 ± 0.02 % dose/g

Query block: Moving on to CSC1=[S+][99Tc-2]2(#[N])([NH]N1C)[P+](c1ccccc1)(c1ccccc1)CCOCC[P+]2(c1ccccc1)c1ccccc1 [^99mTc(N)(POP)(DTC)^+]
Result block: 0.145 ± 0.01 % dose/g
